# Method notes: solvent given as SMILES
# Condition info: in ClCCl
Endpoint name: fluorescence lifetime (ns)
Give a bare numeral; the unit ns is implied.

Compound: O=c1c2cccc3cccc(c32)c2nc3c(F)c(F)c(F)c(F)c3n12
fluorescence lifetime, ns: 9
//
Compound: CC(C)(C)c1ccc2c(c1)c1cc(C(C)(C)C)ccc1n2-c1ccc(C#Cc2ccc3c4ccc(C#Cc5ccc(C=O)cc5)cc4n(-c4ccc(C(F)(F)F)cc4)c3c2)cc1
fluorescence lifetime, ns: 0.84
//
Compound: CC(C)(C)c1ccc2ccc3c(C(C)(C)C)ccc4ccc1c2c43
fluorescence lifetime, ns: 43.1
//
Compound: O=C1c2ccccc2C(=O)C1C1C(=O)c2c3ccccc3cc3cc4ccccc4c1c23 (centres undefined)
fluorescence lifetime, ns: 11
//
Compound: CCN(CC)c1ccc2cc(-c3ccc(-c4ccc(-c5cc6ccc(N(CC)CC)cc6oc5=O)cc4)cc3)c(=O)oc2c1
fluorescence lifetime, ns: 10.1

// query Fill in: fluorescence lifetime of COc1ccc(-c2ccc3c(c2)[Si](C)(C)c2cc(-c4ccc(OC)cc4)ccc2C=C3)cc1 is ___
// result 1.4

// query CCCn1c2cccc3oc4cccc5oc6cccc1c6[c+](c45)c32 ?
// result 21.8

// query Also check c1coc(-c2nc3ccccc3[nH]2)c1
// result 1.26

// query Also COc1ccc2cc(-c3ccc([N+](=O)[O-])cc3)ccc2c1 ?
// result 2.04

----------
# Method notes: solvent given as SMILES
# Condition info: in Cc1ccccc1
# fluorescence lifetime per record follows
Record the result as number plus unit.

Entry smiles: c1cc2c([nH]c3c4[nH]c5sccc5c4c4nsnc4c23)s1
Endpoint name: fluorescence lifetime
Test value: 13.8 ns

// query What value of fluorescence lifetime has been recorded for this entry: CC(C)(C)c1ccc2c(c1)B1c3cc(C(C)(C)C)ccc3Oc3cc(-n4c5ccccc5c5c6c(c7ccccc7n6-c6ccccc6)c6c(c7ccccc7n6-c6ccccc6)c54)cc(c31)O2
// result 19.6 ns

// query How about this compound: CCOC(=O)C(C(=O)OCC)C1=[N+]2C(=C(c3ccc(C)cc3)c3ccc(Cl)n3[B-]2(F)F)C=C1
// result 3.63 ns

// query For COc1ccc(N(c2ccc(OC)cc2)c2cc3ccc4cc(B(c5c(C)cc(C)cc5C)c5c(C)cc(C)cc5C)cc5ccc(c2)c3c45)cc1 then?
// result 8.7 ns

// query Entry to check: CCCCCCCCC1(CCCCCCCC)c2ccccc2-c2ccc(N(c3ccc(-n4c5ccccc5c5ccccc54)cc3)c3ccc4c(c3)C(CCCCCCCC)(CCCCCCCC)c3ccccc3-4)cc21
// result 1.75 ns

// query Input Cc1ccc(N(c2ccc(C)cc2)c2ccc(-c3ccc4c(c3)C(=O)c3ccccc3C4=O)cc2)cc1
// result 5.75 ns

// query Next record, please: N#Cc1ccc(/C=C/c2ccc3ccc4cccc5ccc2c3c45)cc1
// result 1.76 ns

----------
# Method notes: solvent given as SMILES
# Condition info: in CCCCCC
// fluorescence lifetime lookup, one value per entry
Form field: result (number plus unit)

Worked cases, fluorescence lifetime given:
Entry smiles: CCCCCCC(CCCCCC)N1C(=O)c2cccc3c(-c4ccc(OC)cc4)ccc(c23)C1=O
Endpoint name: fluorescence lifetime
Test value: 2.65 ns
//
Entry smiles: CCCCCCCCC1(CCCCCCCC)c2ccccc2-c2ccc(N(c3ccc(-n4c5ccccc5c5ccccc54)cc3)c3ccc4c(c3)C(CCCCCCCC)(CCCCCCCC)c3ccccc3-4)cc21
Endpoint name: fluorescence lifetime
Test value: 1.68 ns
//
Entry smiles: CC1=N/C(=C\c2cc(N(C)C)ccc2C#N)C(=O)N1C
Endpoint name: fluorescence lifetime
Test value: 24.7 ns
//
Entry smiles: N#Cc1ccc(N)cc1
Endpoint name: fluorescence lifetime
Test value: 3.2 ns
//
Entry smiles: CC(C)(C)c1cc2cc(N(c3ccccc3)c3ccccc3)c3cc(C(C)(C)C)cc4cc(N(c5ccccc5)c5ccccc5)c(c1)c2c43
Endpoint name: fluorescence lifetime
Test value: 4.6 ns

// query Consider the compound CC1=CC(C)=[N+]2C1=Cc1c3ccccc3c(C#Cc3ccccc3)n1[B-]2(F)F and give its measured fluorescence lifetime.
// result 5.41 ns

// query For N#Cc1cccc(N)c1 then?
// result 1.9 ns

// query Repeat with COc1cc(OC)c(C2=C3C(C)=CC(C)=[N+]3[B-](F)(F)n3c(C)cc(C)c32)c(OC)c1
// result 6.35 ns

// query Similarly, Cc1ccc(N(c2ccc(C)cc2)c2ccc(-c3ccc4c(c3)C(=O)c3ccccc3C4=O)cc2)cc1 ?
// result 6.89 ns

// query Please answer likewise for C(=C\c1ccc2ccccc2c1)/c1ccc(Nc2ccccc2)cc1
// result 0.34 ns

// query Next: C/C=C/c1cccc(OC)c1
// result 5.9 ns

// query Likewise for O=Cc1ccc2ccc3cccc4ccc1c2c34 ?
// result 7.43 ns

// query Also check CCCCCCC(CCCCCC)N1C(=O)c2cccc3c(-c4ccc(OC)c5ccccc45)ccc(c23)C1=O
// result 1.7 ns

// query Now this one: c1ccc2c(-c3cc(-c4nccs4)nc(-c4nccs4)c3)c3ccccc3cc2c1
// result 3.31 ns

// query Item: CC1=CC(C)=[N+]2C1=Cc1c3ccccc3c(C#Cc3ccc(F)cc3)n1[B-]2(F)F
// result 5.44 ns

// query What about C/C=C/c1ccc(OC)cc1 ?
// result 7.9 ns

// query Follow-up item: O=C1OC(=O)c2ccc(N(c3ccccc3)c3ccc4ccccc4c3)c3cccc1c23
// result 8.42 ns

// query Next entry: c1ccc(N2c3ccccc3Sc3cc(-c4cccc5nc6ccccc6cc45)ccc32)cc1
// result 2.05 ns

// query How about this compound: CC\C=C/C=C/C=C/C=C\CCCCCCCC(=O)O
// result 4.5 ns

// query Field entry: CCCC(=O)c1c2c(c(C(=O)CCC)c3c1OC(CC(=O)OC)(C(=O)OC)O3)OCO2
// result 18.5 ns

// query Let us now turn to COc1ccccc1C1=C2C(C)=CC(C)=[N+]2[B-](F)(F)n2c(C)cc(C)c21
// result 5.78 ns

// query # repeat for COc1ccc(N(c2ccc(OC)cc2)c2ccc3ccc4c(B(c5c(C)cc(C)cc5C)c5c(C)cc(C)cc5C)ccc5ccc2c3c54)cc1
// result 6.2 ns

// query Same again, this time with COc1ccc(C#Cc2c3ccccc3c3n2[B-](F)(F)[N+]2=C(C)C=C(C)C2=C3)cc1
// result 5.2 ns

// query Here is the next compound: CC(C)c1ccc2ccc3cccc4ccc1c2c34
// result 50.6 ns
